The following compounds are shown together with reported growth inhibition values.
experiment: NCI Yeast Anticancer Drug Screen. Data for the mec2-1 strain (AID 157); conditions: S. cerevisiae mec2-1 strain, at 100.0 µM, hits give high values
Compounds without any hit were thinned out: in the full panel of roughly 79,000, 15% have a hit.
Write the answer as a number in %, unit excluded.

Completed entries (count: 4):
>>> measured_value("C=C1CCC(O)C/C1=C/C=C1\\CCCC2(C)C1CCC2C(C)CCCC(C)C (stereo not given)")
-15
>>> measured_value("CCCC(=O)Oc1ccc(/C=N/NC(N)=S)nc1")
42
>>> measured_value("CCc1nc2ccc(NCCN(C)C)c3c(=O)c4ccccc4n1c23")
16
>>> measured_value("c1ccc2c(c1)sc1c3cnccc3ccc21")
12

[in] Please indicate growth inhibition recorded for CN1CCN(C(=O)/C=C/C(=O)c2ccccc2)CC1
[out] 94

###

# key: entry, value: growth inhibition
experiment: NCI Yeast Anticancer Drug Screen. Data for the wt1 strain (AID 149);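 further: 0% = growth of vehicle-treated wt1 cultures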; conditions: S. cerevisiae wt1 strain (SPY 50644) growth inhibition; at 3.7 µM; hits give high values
Compounds without any hit were thinned out: in the full panel of roughly 79,000, 15% have a hit.
The reply should be a number in %, with the unit left off.

>>> measured_value("Nc1nc(N)c2nc(CNc3ccc(C(=O)NC(CCC(=O)O)C(=O)O)cc3F)cnc2n1 (stereo not given)")
12
>>> measured_value("CC(=O)Nc1ccc(/C=C/[N+](=O)[O-])cc1")
-3
>>> measured_value("Cc1ccccc1N=Cc1cc(Cl)ccc1O")
-5
>>> measured_value("Cc1ccc(CC2(OCCN(C)C)CCC(C(C)(C)C)CC2)cc1 (stereo not given)")
12
>>> measured_value("O=C(C[n+]1ccc2ccccc2c1)c1ccc2ccccc2c1")
-17

[in] Return value of growth inhibition for input CCCCCCOC(=O)NCCOC(=O)Nc1ccccc1 , no commentary.
[out] 1

[in] Return the recorded growth inhibition value; entry: Cc1cccc(C(C)(C)C)c1NC(=O)C(C#N)C1=C(Cl)C(=O)c2ccccc2C1=O (stereo not given)
[out] 10

[in] Return value of growth inhibition for input O=C1C=C(N2CCN(c3ccccn3)CC2)C(=O)c2c(O)ccc(O)c21 , no commentary.
[out] 13

[in] Supply reported growth inhibition belonging to this compound: Cc1cc2c3ccccc3c3ccccc3c2nn1
[out] -6

[in] Using the record for COC(=O)CC1(O)C(/C=C/c2ccccc2)C(C(=O)OC)C(=O)C(C(=O)OC)C1C(=O)OC (stereo not given) , state its measured growth inhibition.
[out] 1

[in] Specify reported growth inhibition for the compound shown: O=C(CC(C(=O)O)N1CCOCC1)c1ccccc1 (stereo not given)
[out] -2

[in] Give the reported growth inhibition for this compound. CCCCOP(=O)(CCCP(=O)(OCCCC)OCCCC)OCCCC
[out] 0

[in] Return growth inhibition for the following compound: CC(C)C(C)/C=C\C(C)C1CCC2C3=CC=C4CC(O)CCC4(C)C3CCC21C (stereo not given)
[out] -1

[in] Supply growth inhibition value. Item: O=C(O)CNC(=S)Nc1ccccc1
[out] -52

###

Test: NCI Yeast Anticancer Drug Screen. Data for the mlh1 rad18 strain (AID 175)
Settings: S. cerevisiae mlh1 rad18 strain growth inhibition; at 5.0 µM (retest, dose inferred, filed as 0.5); hits give high values
Experimental: Growth inhibition of yeast strains with defined genetic alterations is measured as a screen for potential anti-cancer activity. Selected strains with alterations in DNA damage repair or cell cycle control were exposed to compounds and growth inhibition was measured relative to vehicle treated controls. The strain used in this assay is mlh1 rad18
This is part of a sample that, as a whole, favours compounds with a hit. Of some 79,000 tested, about 15% had one in any assay.
A collection of compounds and their measured growth inhibition
Kindly answer with a numeric value in %, unit omitted.

Worked examples follow.
>>> measured_value("COc1ccc([N+](=O)[O-])c2c(NCCCN(C)C)c3ccccc3nc12")
7
>>> measured_value("CCN(CC)CCNc1ccc([N+](=O)[O-])c2nc3ccccc3c(N)c12")
-28
>>> measured_value("O=C(CC(=O)n1nc(-c2ccccc2)c(N=Nc2ccc(Cl)cc2)c1-c1ccccc1)Nc1cccc(Cl)c1")
-5
>>> measured_value("COc1ccc(C(NCCNC(c2ccc(OC)c(OC)c2)c2cc3c(cc2O)OCO3)c2cc3c(cc2O)OCO3)cc1OC (stereo not given)")
-29

[in] Determine its reported growth inhibition: CCOc1ccc(NC(=O)C2=C(C)NC(C)=C(C(=O)Nc3ccc(OCC)cc3)C2c2cccc([N+](=O)[O-])c2)cc1
[out] -7

[in] Provide measured growth inhibition value, entry: Oc1ccc(O)c(Cc2ccccc2)c1
[out] 36

[in] Check the records and state growth inhibition for CCCCOP(=O)(CCCP(=O)(OCCCC)OCCCC)OCCCC
[out] -2

[in] Name the recorded growth inhibition of the item C=C(Cl)COC(=O)Nc1cccc(Cl)c1 in your answer.
[out] -13

[in] Kindly indicate its recorded growth inhibition. Item: O=C1c2cccnc2C(=O)C2C3C=CC(C3)C12 (stereo not given)
[out] 72

[in] Indicate the recorded growth inhibition value for this compound: C[C@]12CC[C@H](O)CC1=CC[C@@H]1C2CC[C@]2(C)C(=O)NC(=O)CC12 (stereo not given in full)
[out] -25

[in] Provide growth inhibition value for the following compound: Nc1ccc(F)cc1S
[out] 15

[in] Give a short answer stating reported growth inhibition for CCOC1(c2cccc([N+](=O)[O-])c2)c2ccccc2Oc2ccccc21 .
[out] 57
